pKd values by entry
B1: Clover-AZIN (antizyme inhibitor with an N-terminal Clover tag) [human] / antizyme-mRuby2 (antizyme with a C-terminal mRuby2 tag) [human] (parent complex)
chain 1: MKGFIDDANYSVGLLDEGTNLGNVIDNYVYEHTLTGKNAFFVGDLGKIVKKHSQWQNVVAQIKPFYTVKCNSAPAVLEILAALGTGFACSSKNEMALVQELGVPPENIIYISPCKQVSQIKYAAKVGVNILTCDNEIELKKIARNHPNAKVLLHIATEDNIGGEEGNMKFGTTLKNCRHLLECAKELDVQIIGVKFHVSSACKESQVYVHALSDARCVFDMAGEIGFTMNMLDIGGGFTGTEFQLEEVNHVISPLLDIYFPEGSGVKIISEPGSYYVSSAFTLAVNIIAKKVVENDKFPSGVEKTGSDEPAFMYYMNDGVYGSFASKLSEDLNTIPEVHKKYKEDEPLFTSSLWGPSCDELDQIVESCLLPELNVGDWLIFDNMGADSFHEPSAFNDFQRPAIYYMMSFSDWYEMQDAGITSDSMMKNFFFVPSCIQLSQEDSFSAEA
chain 2: not shown

# Variants of: B1
# test_summary: FRET titration; parent: 24 nM; read off a plot
pKd: −log10 of the molar value.

chain 1 K141A ... ~7.72
chain 1 E391A ... ~7.92
chain 1 D359A ... ~7.39
chain 1 E138A ... ~7.70
chain 1 N93A ... ~7.46

Prompt: # lookup: pKd of chain 1 S329A
Response: ~7.62

Prompt: Please look up its pKd: chain 1 L361A
Response: ~7.26
